- System: LOX IMVI melanoma
- Measurement protocol: NCI-60 one-dose screen, 48 h
- Condition: 10 µM unless noted
This is part of a sample that, as a whole, favours compounds with a hit. Of some 83,000 tested, about 20% had one in any assay. The source made the active and inactive calls. Rule for the calls: active = growth percent below 10; inactive = the rest.
Select the correct class. Options are label 1 = active, label 0 = inactive and nothing else.

A selection of reference data follows.
1) Cc1cc(C)nc(SCC(=O)Nc2cccc(N=Cc3ccccc3O)c2)n1 ... label 0
2) O=C1COCCN1c1ccc(Nc2nc(Cl)nc(N3CCOCC3)n2)cc1 ... label 0
3) Cc1cccc(C[C@H](NC(=O)Nc2ccc(Cl)cc2F)C(=O)N[C@@H]2C(=O)N3C[C@H](O)C[C@H]3C(=O)N3CCCC[C@H]3C(=O)N[C@@H](C)C(=O)N3C[C@H](C)C[C@H]3C(=O)O[C@H]2C)c1 ... label 1
4) CC[C@]1(O)CC2CN(CCc3c([nH]c4ccccc34)[C@@](C(=O)OC)(c3cc4c(cc3OC)N(C=O)[C@H]3[C@@](O)(C(=O)OC)[C@H](OC(C)=O)[C@]5(CC)C=CCN6CC[C@]43[C@@H]65)C2)C1 (some centres not stated) ... label 0

Request: What did this assay record as the result for C=C(CN=[N+]=[N-])[C@@H]1CC[C@]2(C)[C@H](CC[C@@H]3[C@H]4[C@H]5OC(=O)[C@@]4(CCC5(C)C)CC[C@]32C)[C@@]1(C)CCC#N ?
Response: label 0

Request: // next record COc1cc2c(c(OC)c1OC)-c1cc(I)c(O)cc1[C@@H](NC(C)=O)CC2
Response: label 0

Request: // next record Cc1nn(-c2ccccc2)c(N2CCOCC2)c1-c1nc2ccc([N+](=O)[O-])cc2[nH]1
Response: label 0

Request: // next record CN(C)c1ccc(-c2ccc(-c3ccc(C(=N)N)cc3)s2)cc1
Response: label 0

Request: // next record Cc1cccc([N+](=O)[O-])c1I
Response: label 0

Request: // next record COc1cc(/C=C/C(=O)/C=C/c2ccc(-n3ccnc3)cc2)ccc1O
Response: label 1

Request: // next record CCN(CC)CCCC(C)Nc1c2ccc(C)cc2nc2ccc(OC)cc12 (configuration not stated)
Response: label 1

Request: // next record O=C(O)c1ccccc1C(F)(F)F
Response: label 0

Request: // next record CC1(C)CC[C@]2(C(=O)O)CC[C@]3(C)[C@H](CC[C@@H]4[C@@]5(C)CCC(=O)C(C)(C)[C@@H]5CC[C@]43C)[C@H]2[C@H]1OC(=O)C(F)(F)F
Response: label 1

Request: // next record O=S(=O)(NCc1ccccc1)c1ncnc2nc[nH]c12
Response: label 0
